Please go through the items and note down their IC50.
- measured target: SMYD3 (Homo sapiens (Human), UniProt Q9H7B4)
- Sequence (Q9H7B4 whole entry): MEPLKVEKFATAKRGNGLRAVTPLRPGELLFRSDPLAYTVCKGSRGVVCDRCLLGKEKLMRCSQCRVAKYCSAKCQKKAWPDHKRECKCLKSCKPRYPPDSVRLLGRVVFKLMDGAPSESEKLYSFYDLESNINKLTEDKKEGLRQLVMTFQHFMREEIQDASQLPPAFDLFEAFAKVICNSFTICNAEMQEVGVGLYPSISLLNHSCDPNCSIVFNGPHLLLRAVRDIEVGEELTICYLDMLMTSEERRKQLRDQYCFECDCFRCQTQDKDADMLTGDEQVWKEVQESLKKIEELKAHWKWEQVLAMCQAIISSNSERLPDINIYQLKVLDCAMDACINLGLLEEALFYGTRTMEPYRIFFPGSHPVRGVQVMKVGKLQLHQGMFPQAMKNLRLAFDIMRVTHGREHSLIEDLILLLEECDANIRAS
- run description: SMYD3 biochemical assay (SMYD3 enzyme assay on MEKK2 protein substrate, 3H-SAM scintillation proximity assay)
- assay conditions: read-out: SMYD3 Biochem IC50
- From the text: S-adenosylmethionine (SAM), S-adenosylhomocysteine (SAH), Tris, Tween20, dimethylsulfoxide (DMSO), bovine skin gelatin (BSG), and Tris(2-carboxyethyl)phosphine hydrochloride solution (TCEP) were purchased from Sigma-Aldrich at the highest level of purity possible. ^3H-SAM was purchase from American Radiolabeled Chemicals with a specific activity of 80 Ci/mmol. 384-well opaque white OptiPlates and SPA beads (Perkin Elmer, catalog # RPNQ0013) were purchased from PerkinElmer. […]

Known results for compounds:
> print(dat)
                                   compound  reported
1  CC1=NN(c2ccc(C(=O)N[C@H]3CC[C@H](N)CC3)cc2)C(=O)C1  > 100 µM
2  CC(NC(=O)c1cc(C(C)(C)C)nn1C)C1CCN(C(=O)[C@H](C)N)CC1 (stereo partly drawn)  > 100 µM
3  CC(NC(=O)c1ccc(O)nc1)C1CCN(C(=O)[C@H](C)N)CC1 (stereo partly drawn)  > 100 µM
4  COc1cnc(C(=O)N[C@H]2CC[C@H](NC(=O)CCN)CC2)cn1  > 100 µM

Would you mind listing IC50 for each of the following compounds?
1. CC(NC(=O)c1cnccc1N)C1CCN(C(=O)[C@H](C)N)CC1 (stereo partly drawn)
2. Nc1n[nH]c(C(=O)N[C@H]2CC[C@H](N)CC2)n1

1. > 100 µM
2. > 50 µM

Report IC50 for each item below.
1. N[C@H]1CC[C@H](NC(=O)Cc2c[nH]c3cccnc23)CC1
2. Cn1nccc1C(=O)N[C@H]1CC[C@H](NC(=O)CCN)CC1
3. NCCC(=O)N[C@H]1CC[C@H](NC(=O)c2cc(=O)c3ccccc3o2)CC1
4. O=C1Cc2cc(C(=O)N[C@H]3C[C@H]4CC[C@@H](C3)N4S(=O)(=O)CC3CCCNC3)ccc2N1 (stereo partly drawn)
5. NCCC(=O)N[C@H]1CC[C@H](NC(=O)c2ccc3c(c2)OC(F)(F)O3)CC1
6. N[C@H]1CC[C@H](NC(=O)c2cc3cccc(O)c3cc2O)CC1
7. NCCC(=O)N1CCC(CC(=O)N2CCC3NC(=O)CC3C2)CC1 (stereo not drawn)

> 100 µM
> 100 µM
> 100 µM
0.00214 µM
7.49 µM
20.7 µM
10.2 µM

State recorded IC50 for all listed compounds.
1. CC(NC(=O)c1nccn1C)C1CCN(C(=O)[C@H](C)N)CC1 (stereo partly drawn)
2. N[C@H]1CC[C@H](NC(=O)c2ccc3c(c2)CNC3=O)CC1

1. 64.9 µM
2. 37.9 µM

---

- measured target: SMYD3 (Homo sapiens (Human), UniProt Q9H7B4)
- run description: SMYD3 biochemical assay (SMYD3 enzyme assay on MEKK2 protein substrate, 3H-SAM scintillation proximity assay)
- assay conditions: Table 1A; average of n = 1 to n = 50; read-out: SMYD3 Biochem IC50
result type: IC50

> print(dat)
                                   compound  result.type  reported
1  CCc1cnc(C(=O)NC(C)C2CCN(C(=O)[C@H](C)N)CC2)s1 (some centres unmarked) [compound 552]         IC50   6.44 µM
2  CC(NC(=O)c1cn(CC(N)=O)nn1)C1CCN(C(=O)[C@H](C)N)CC1 (some centres unmarked) [compound 534]         IC50   > 50 µM
3  CCc1cnc(C(=O)N[C@H]2CC[C@H](NC(=O)CCN)CC2)s1 [compound 553]         IC50   25.6 µM

Need IC50 for each of these compounds.
1. N[C@H]1CC[C@H](NC(=O)c2nc(I)n[nH]2)CC1 [compound 548]
2. NCCC(=O)N[C@H]1CC[C@H](NC(=O)c2cc(Cl)[nH]n2)CC1 [compound 528]
3. N[C@H]1CC[C@H](NC(=O)c2n[nH]c(Cl)n2)CC1 [compound 541]
4. NCCC(=O)N[C@H]1CC[C@H](NC(=O)c2c[nH]cn2)CC1 [compound 537]
5. CC(NC(=O)c1nc2ccncc2s1)C1CCN(C(=O)[C@H](C)N)CC1 (some centres unmarked) [compound 551]
6. N[C@H]1CC[C@H](NC(=O)c2nc3ccncc3s2)CC1 [compound 533]
7. C[C@H]1C[C@H](NC(=O)c2ccccc2)CCN1C(=O)C1CCC(N)CC1 (mixture of isomers) [compound 571]

> 50 µM
> 50 µM
> 50 µM
> 50 µM
> 50 µM
> 50 µM
> 10 µM

Below are 4 compounds. Give each one its IC50.
1. NCCCC(=O)N1CCC(NC(=O)c2ncn[nH]2)CC1 [Cpd. No. 560]
2. NCCCC(=O)N[C@H]1CC[C@H](NC(=O)c2nnc[nH]2)CC1 [compound 540]
3. Cc1ncc(C(=O)N[C@H]2CC[C@H](N)CC2)[nH]1 [compound 522]
4. Nc1nc(C(=O)N[C@H]2CC[C@H](N)CC2)c[nH]1 [compound 572]

> 10 µM
> 50 µM
> 50 µM
> 10 µM

Lab note: each compound below needs its IC50 filled in.
1. C[C@@H]1C[C@H](NC(=O)c2ccccc2)CCN1C(=O)C1CCC(N)CC1 (mixture of isomers) [compound 558]
2. N[C@H]1CC[C@H](NC(=O)c2cc(Cl)[nH]n2)CC1 [compound 545]
3. Cc1nc(C(=O)N[C@H]2CC[C@H](N)CC2)n[nH]1 [compound 550]
4. N[C@H]1CC[C@H](NC(=O)c2cnc3ncccn23)CC1 [compound 574]

> 10 µM
> 50 µM
14.7 µM
> 10 µM

Please supply IC50 for each of the following items, keeping them in order.
1. CC(NC(=O)c1nnc[nH]1)C1CCN(C(=O)[C@H](C)N)CC1 (some centres unmarked) [compound 523]
2. CCc1cccc(C(=O)N[C@H]2CCN(S(=O)(=O)CCCN)[C@H](C)C2)c1 (racemic) [compound 573]

1: > 50 µM; 2: > 10 µM
